Test details: Plasma metabolite profiles
Format: in vivo, male CD‐1 mice
Experimental parameters: male, CD-1, mouse, plasma, iv, 1 mg/kg
Give concentration at 48 h for every item shown.
Just the number in nM, nothing appended.

So for Nc1ccn([C@@H]2O[C@H](CO)[C@@H](O)[C@H]2O)c(=O)n1 [Metabolite M5, cytidine] , the logged concentration at 48 h turned out to be 0

So for Nc1cc[nH]c(=O)n1 [Metabolite M2, cytosine] , the logged concentration at 48 h turned out to be 9.6

So for `CO[C@@H]1[C@H](O)[C@@H](CO)O[C@H]1n1ccc(=O)[nH]c1=O` , the logged concentration at 48 h turned out to be 6.7

So for O=c1cc[nH]c(=O)[nH]1 [Metabolite M3, uracil] , the logged concentration at 48 h turned out to be 17.5

So for O=c1ccn([C@@H]2O[C@H](CO)[C@@H](O)[C@H]2O)c(=O)[nH]1 [Metabolite M1, uridine] , the logged concentration at 48 h turned out to be 18.8

Measured values drawn from paper PMC4777266 for this set.
